Data provenance is patent US4861897A.

# measured-target: parietal cell H^+ K^+ ATPase (Oryctolagus cuniculus, UniProt P27112)
# Construct: determined in fundic mucosa from New Zealand white rabbits which were homogenized; from tissue; host or cells: fundic mucosa of New Zealand white rabbits, homogenized; membrane protein
# Sequence (P27112 2-1035 limits assumed): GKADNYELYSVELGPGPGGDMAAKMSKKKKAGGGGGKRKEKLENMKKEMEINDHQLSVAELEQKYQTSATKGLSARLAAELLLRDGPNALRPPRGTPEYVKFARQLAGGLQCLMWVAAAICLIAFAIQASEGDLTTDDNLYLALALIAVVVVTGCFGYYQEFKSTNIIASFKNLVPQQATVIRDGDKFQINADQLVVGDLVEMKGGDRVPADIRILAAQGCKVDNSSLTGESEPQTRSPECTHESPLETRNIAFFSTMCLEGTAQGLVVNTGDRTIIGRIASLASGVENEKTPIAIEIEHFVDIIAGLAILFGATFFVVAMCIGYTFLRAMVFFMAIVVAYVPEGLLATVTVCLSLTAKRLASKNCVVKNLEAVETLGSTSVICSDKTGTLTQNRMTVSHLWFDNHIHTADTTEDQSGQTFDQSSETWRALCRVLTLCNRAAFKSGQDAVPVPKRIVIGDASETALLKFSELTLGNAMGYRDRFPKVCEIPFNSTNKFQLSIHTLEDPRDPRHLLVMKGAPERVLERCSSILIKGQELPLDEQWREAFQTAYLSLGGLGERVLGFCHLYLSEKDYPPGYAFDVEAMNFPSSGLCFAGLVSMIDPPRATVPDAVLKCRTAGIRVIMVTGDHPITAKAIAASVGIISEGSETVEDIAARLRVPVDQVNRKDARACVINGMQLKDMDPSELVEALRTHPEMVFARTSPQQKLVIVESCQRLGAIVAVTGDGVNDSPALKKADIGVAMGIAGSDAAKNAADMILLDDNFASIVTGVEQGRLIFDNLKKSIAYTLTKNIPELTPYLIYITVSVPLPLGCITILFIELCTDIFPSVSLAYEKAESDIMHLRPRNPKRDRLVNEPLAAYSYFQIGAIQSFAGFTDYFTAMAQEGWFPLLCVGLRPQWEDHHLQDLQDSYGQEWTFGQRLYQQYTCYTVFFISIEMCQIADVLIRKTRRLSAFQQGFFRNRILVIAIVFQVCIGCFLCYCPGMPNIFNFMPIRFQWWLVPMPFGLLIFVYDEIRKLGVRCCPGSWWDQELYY
# Sequence (P18597 whole entry partner): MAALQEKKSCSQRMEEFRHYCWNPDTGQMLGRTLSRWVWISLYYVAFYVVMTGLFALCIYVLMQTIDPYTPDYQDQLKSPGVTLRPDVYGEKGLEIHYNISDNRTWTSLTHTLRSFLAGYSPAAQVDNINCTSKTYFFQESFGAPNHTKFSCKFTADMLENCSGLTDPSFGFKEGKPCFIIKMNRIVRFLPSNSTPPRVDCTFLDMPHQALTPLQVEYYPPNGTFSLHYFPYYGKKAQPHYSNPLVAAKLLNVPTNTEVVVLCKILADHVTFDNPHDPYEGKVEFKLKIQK
# procedure-details: Inhibition of parietal cell H+ K+ ATPase
# Type: biochemical, New Zealand white rabbits
# study-conditions: Example 49; given as "50% @ x μM"; read-out: % Inhibition at Concentration (H+ K+ ATPase): concentration given for 50% inhibition
// classify: if (IC50 < 70 µM) fulfilled else not fulfilled

Use the examples below as a reference point.
CCCN(CCC)CCCOc1cccc(/C=C/c2nc3ccccc3o2)c1 | fulfilled
C(=C\c1nc2ccccc2s1)/c1ccc(OCCCCN2CCCC2)cc1 | fulfilled
C(=C\c1nc2ccccc2o1)/c1ccc(OCCCN2CCCCC2)cc1 | fulfilled

stdin: For this compound, is IC50 lower than 70 µM? CN1CCN(CCCOc2cccc(/C=C/c3nc4ccccc4o3)c2)CC1
stdout: not fulfilled

stdin: For this compound, is IC50 lower than 70 µM? COc1ccc2nc(/C=C/c3cccc(OCCCCn4ccnc4)c3)oc2c1
stdout: not fulfilled

* * *

Would you kindly list pIC50 for each of these compounds?
# Test system: cAMP stimulated parietal cells
# procedure-details: Isolated parietal cell assay, inhibition of 14C-aminopyrine accumulation, dibutyryl cAMP stimulated
# Format: cell-based, rabbit
# study-conditions: Oryctolagus cuniculus, 20 min, Example 48, 37° C., read-out: IC50 vcAMP (inhibition of 14C-AP accumulation in cAMP stimulated parietal cells)
Numbers only, as −log10 of the molar value.

Consider the reported pIC50 for these compounds:
CCCCN(CCCC)CCOc1ccc(/C=C/c2nc3ccccc3s2)cc1 | 6.22
CCCN(CCC)CCCCOc1ccc(/C=C/c2nc3ccccc3o2)cc1 | 6.96
CCCCN(CCCC)CCCOc1cccc(/C=C/c2nc3ccccc3o2)c1 | 6.85
C(=C\c1nc2ccccc2o1)/c1ccc(OCCCCn2ccnc2)cc1 | 6.48

Batch of 5 compounds: report pIC50 for each.
1. CCCN(CCC)CCCCOc1ccc(/C=C/c2nc3ccccc3s2)cc1
2. C(=C\c1nc2ccccc2s1)/c1cccc(OCCCCn2ccnc2)c1
3. CCN(CC)CCCCOc1ccc(/C=C/c2nc3ccccc3o2)cc1
4. C(=C\c1nc2ccccc2s1)/c1ccc(OCCCn2ccnc2)cc1
5. CCCCN(CCCC)CCCOc1ccc(/C=C/c2nc3ccc(OC)cc3o2)cc1

stdout:
6.92
6.68
6.92
6.47
7.30

* * *

Would you kindly list IC50 for each of these compounds?
# Test system: cAMP stimulated parietal cells
# procedure-details: Isolated parietal cell assay, inhibition of 14C-aminopyrine accumulation, dibutyryl cAMP stimulated
# Assay type: cell-based, rabbit
# study-conditions: Oryctolagus cuniculus, 20 min, Example 48, 37° C., read-out: IC50 vcAMP (inhibition of 14C-AP accumulation in cAMP stimulated parietal cells)
Give bare numbers, in nM.

CCCCN(CCCC)CCCOc1ccc(/C=C/c2nc3ccc(OC)cc3s2)cc1 | 460
CCCCN(CCCC)CCOc1ccc(/C=C/c2nc3ccccc3o2)cc1 | 540
CCCN(CCC)CCCOc1cccc(/C=C/c2nc3ccccc3o2)c1 | 240
CCN(CC)CCCOc1ccc(/C=C/c2nc3ccccc3o2)cc1 | 980

Batch of 5 compounds: report IC50 for each.
1. CN1CCN(CCCOc2cccc(/C=C/c3nc4ccccc4o3)c2)CC1
2. CCCN(CCC)CCCOc1ccc(-c2nc3ccccc3s2)cc1
3. COc1ccccc1N1CCN(CCCOc2ccc(/C=C/c3nc4ccccc4s3)cc2)CC1
4. CCCN(CCC)CCCCOc1cccc(/C=C/c2nc3ccccc3s2)c1
5. C(=C\c1nc2ccccc2s1)/c1ccc(OCCCCN2CCCC2)cc1

stdout:
[410, 140, 3400, 180, 260]

* * *

# measured-target: parietal cell H^+ K^+ ATPase (Oryctolagus cuniculus, UniProt P27112)
# Construct: determined in fundic mucosa from New Zealand white rabbits which were homogenized; from tissue; host or cells: fundic mucosa of New Zealand white rabbits, homogenized; membrane protein
# procedure-details: Inhibition of parietal cell H+ K+ ATPase
# Format: biochemical, New Zealand white rabbits
# study-conditions: Example 49; given as "50% @ x μM"; read-out: % Inhibition at Concentration (H+ K+ ATPase): concentration given for 50% inhibition
// classify: if (IC50 < 20 µM) label 1 else label 0

CCCN(CCC)CCCOc1ccc(/C=C/c2nc3ccccc3o2)cc1 | label 0
CCCCN(CCCC)CCCOc1ccc(/C=C/c2nc3ccc(OC)cc3o2)cc1 | label 0
CCCN(CCC)CCCOc1c(OC)cc(/C=C/c2nc3ccccc3o2)cc1OC | label 0

stdin: For this compound, is IC50 lower than 20 µM? CCCN(CCC)CCCCOc1ccc(/C=C/c2nc3ccccc3s2)cc1
stdout: label 0

* * *

# Test system: cAMP stimulated parietal cells
# procedure-details: Isolated parietal cell assay, inhibition of 14C-aminopyrine accumulation, dibutyryl cAMP stimulated
# Assay type: cell-based, rabbit
# study-conditions: Oryctolagus cuniculus, 20 min, Example 48, 37° C., read-out: IC50 vcAMP (inhibition of 14C-AP accumulation in cAMP stimulated parietal cells)
readout-label: pIC50
One number for each entry, as −log10 of the molar value.

Consider the reported pIC50 for these compounds:
CCN(CC)CCCCOc1ccc(/C=C/c2nc3ccccc3s2)cc1 | 6.46
CCCN(CCC)CCCOc1ccc(/C=C/c2nc3ccccc3s2)cc1 | 6.68
CCCCN(CCCC)CCCOc1ccc(/C=C/c2nc3cc(C)ccc3s2)cc1 | 6.28

Batch of 5 compounds: report pIC50 for each.
1. C(=C\c1nc2ccccc2o1)/c1ccc(OCCCCN2CCCC2)cc1
2. CCCN(CCC)CCCOc1ccc(/C=C/c2nc3ccccc3o2)cc1
3. C(=C\c1nc2ccccc2o1)/c1ccc(OCCCn2ccnc2)cc1
4. CCCN(CCC)CCCOc1c(C)cc(/C=C/c2nc3ccccc3o2)cc1C
5. C(=C\c1nc2ccccc2o1)/c1ccc(OCCCN2CCCCC2)cc1

stdout:
6.62
6.46
6.60
7.00
6.82

* * *

Would you kindly list pIC50 for each of these molecules?
# System: cAMP stimulated parietal cells
# procedure-details: Isolated parietal cell assay, inhibition of 14C-aminopyrine accumulation, dibutyryl cAMP stimulated
# Format: cell-based, rabbit
# study-conditions: Oryctolagus cuniculus, 20 min, Example 48, 37° C., read-out: IC50 vcAMP (inhibition of 14C-AP accumulation in cAMP stimulated parietal cells)
Give bare numbers, as −log10 of the molar value.

CCCCN(CCCC)CCCOc1ccc(/C=C/c2nc3cc(C)ccc3o2)cc1 [Example 15] | 6.47
C(=C\c1nc2ccccc2o1)/c1ccc(OCCCCN2CCCCC2)cc1 [Example 19] | 6.48
CCN(CC)CCCOc1ccc(/C=C/c2nc3ccccc3s2)cc1 [Example 30] | 6.82
CCCCN(CCCC)CCCOc1ccc(/C=C/c2nc3ccccc3o2)cc1 [Example 8] | 6.82
C(=C\c1nc2ccccc2o1)/c1cccc(OCCCCn2ccnc2)c1 [Example 6] | 6.64
COc1ccccc1N1CCN(CCCOc2ccc(/C=C/c3nc4ccccc4o3)cc2)CC1 [Example 14] | 6.10
C(=C\c1nc2ccccc2o1)/c1ccc(OCCCCCn2ccnc2)cc1 [Example 24] | 6.64
CCCN(CCC)CCCCOc1cccc(/C=C/c2nc3ccccc3o2)c1 [Example 5] | 6.51

// CCCCN(CCCC)CCCOc1cccc(/C=C/c2nc3ccccc3s2)c1 [Example 25] : pIC50 value = 6.48

* * *

# System: cAMP stimulated parietal cells
# procedure-details: Isolated parietal cell assay, inhibition of 14C-aminopyrine accumulation, dibutyryl cAMP stimulated
# Format: cell-based, rabbit
# study-conditions: Oryctolagus cuniculus, 20 min, Example 48, 37° C., read-out: IC50 vcAMP (inhibition of 14C-AP accumulation in cAMP stimulated parietal cells)
readout-label: IC50 (nM)
One number for each entry, in nM.

Batch of 4 compounds: report IC50 for each.
1. CCCCN(CCCC)CCCOc1ccc(/C=C/c2nc3ccccc3s2)cc1 [Example 28]
2. COc1ccc2nc(/C=C/c3cccc(OCCCCn4ccnc4)c3)oc2c1 [Example 7]
3. CCCCN(CCCC)CCCOc1ccc(-c2nc3ccccc3s2)cc1 [Example 43]
4. CCCN(CCC)CCCCOc1ccc(/C=C/c2nc3ccccc3o2)cc1Cl [Example 45]

stdout:
[450, 180, 2600, 740]

* * *

# measured-target: parietal cell H^+ K^+ ATPase (Oryctolagus cuniculus)
# Construct: determined in fundic mucosa from New Zealand white rabbits which were homogenized; from tissue; host or cells: fundic mucosa of New Zealand white rabbits, homogenized; membrane protein
# procedure-details: Inhibition of parietal cell H+ K+ ATPase
# Format: biochemical, New Zealand white rabbits
# study-conditions: Example 49; @ 10^-4 M; read-out: % Inhibition at Concentration (H+ K+ ATPase)
Label TRUE when inhibition at 100 µM is at or above 50%; anything below gets FALSE.

Use the examples below as a reference point.
CCCCN(CCCC)CCOc1ccc(/C=C/c2nc3ccccc3s2)cc1 [Example 37] | FALSE
CCN(CC)CCCOc1ccc(/C=C/c2nc3ccccc3o2)cc1 [Example 11] | FALSE
CCCCN(CCCC)CCCOc1ccc(/C=C/c2nc3cc(C)ccc3s2)cc1 [Example 34] | TRUE
CCCCN(CCCC)CCCOc1ccc(/C=C/c2nc3ccccc3s2)cc1 [Example 28] | FALSE

Let us examine a further case.
stdin: Identify whether the reported inhibition at 100 µM of the following compound is 50% or greater: C(=C\c1nc2ccccc2s1)/c1ccc(OCCn2ccnc2)cc1 [Example 39]
stdout: FALSE
